Values from paper PMC4072508

Biological target: T1, Bfl-1, Q16548
T1 chain: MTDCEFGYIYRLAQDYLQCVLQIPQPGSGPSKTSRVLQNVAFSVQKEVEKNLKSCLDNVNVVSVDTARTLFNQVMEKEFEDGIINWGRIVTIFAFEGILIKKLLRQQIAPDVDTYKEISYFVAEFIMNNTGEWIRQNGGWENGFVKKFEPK
Test: peptide SPOT array, c-Myc-tagged receptor at 1 uM or 100 nM, anti-c-Myc-Cy3
metric name: SPOT signal as a fraction of Bim BH3's signal on the same receptor and array

Previously resolved entries follow.
[
  {
    "binder": "ACGDSVLARMDRELGDSLRRPQLRLW [SLC19A1]",
    "observed value": 0.13
  },
  {
    "binder": "LSIIYTLVEIFQNILDTNLADFTAGL [SLC26A4]",
    "observed value": 0.03
  },
  {
    "binder": "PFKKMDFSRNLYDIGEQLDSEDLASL [CASP8]",
    "observed value": 0.02
  },
  {
    "binder": "KRALIQCAKDIAKASDEVTRLAKEVA [VCL]",
    "observed value": 0.08
  },
  {
    "binder": "IQENVDISTVDQIFADEVLGSGQFGI [PRKD3]",
    "observed value": 0.04
  },
  {
    "binder": "LALMMQLARELKTLARDLGMAVVVTN [RAD51L3]",
    "observed value": 0.07
  },
  {
    "binder": "KQMKEDGACLFRAVADQVYGDQDMHE [OTUD5]",
    "observed value": 0.0533
  },
  {
    "binder": "KIETTPESRYDAQIGDSVSLTCSTTG [VCAM1]",
    "observed value": 0.03
  }
]

(A) MEMYQPSAVVLQCGADSLSGDRLGCF [HDAC2]
(B) ELLRLRQHWKLRKVGDKILGDLSYRS [MED17]
In: Which shows the larger SPOT signal as a fraction of Bim BH3's signal on the same receptor and array value: A or B ? Returns: label corresponding to the selected item.
Out: B
(B: 0.78, A: 0.03)
